These data points were gathered from paper PMC10044120.

# test-description: Metabolic stability in human liver S9 fraction
attribute-measured: half-life

Prompt: Requested field: half-life. Item: C[C@@H](NC(=O)c1ccccc1CCC(=O)NNC(=O)CCl)c1cccc2ccccc12 [Compound 9]
Completion: 0.05 h

Prompt: Requested field: half-life. Item: Cc1ccccc1C(=O)N[C@H](C)c1cccc2ccccc12 [Compound 14]
Completion: > 1 h

Prompt: Requested field: half-life. Item: COC(=O)/C=C/C(=O)NNC(=O)CCc1ccccc1C(=O)N[C@H](C)c1cccc2ccccc12 [Compound 7]
Completion: 1 h

* * *

# test-description: Metabolic stability in rat liver S9 fraction
# condition-notes: Sprague-Dawley
Please respond with reported microsomal CLint for every item in the list.
A number alone suffices; assume µL/min/mg.

Prompt: Requested field: microsomal CLint. Item: C[C@@H](NC(=O)c1ccccc1CCC(=O)NNC(=O)CCl)c1cccc2ccccc12
Completion: 140

Prompt: Requested field: microsomal CLint. Item: Cc1ccccc1C(=O)N[C@H](C)c1cccc2ccccc12
Completion: 138

Prompt: Requested field: microsomal CLint. Item: COC(=O)/C=C/C(=O)NNC(=O)CCc1ccccc1C(=O)N[C@H](C)c1cccc2ccccc12
Completion: 75.5

* * *

# test-description: Metabolic stability in rat liver microsomes
# condition-notes: Sprague-Dawley
Please respond with reported half-life for every item in the list.
A number alone suffices; assume min.

Prompt: Requested field: half-life. Item: Cc1ccccc1C(=O)N[C@H](C)c1cccc2ccccc12
Completion: 21

Prompt: Requested field: half-life. Item: CC(C)NCC(O)COc1cccc2ccccc12 (stereo not shown) [propranolol, reference compound]
Completion: 3

Prompt: Requested field: half-life. Item: C[C@@H](NC(=O)c1ccccc1CCC(=O)NNC(=O)CCl)c1cccc2ccccc12
Completion: 13

Prompt: Requested field: half-life. Item: COC(=O)/C=C/C(=O)NNC(=O)CCc1ccccc1C(=O)N[C@H](C)c1cccc2ccccc12
Completion: 46

* * *

# system-tested: UniProtKB P0DTD1
# test-description: biochemical
# condition-notes: PLpro 10 nM, ISG15-CHOP2
attribute-measured: IC50 (µM)
A number alone suffices; assume µM.

Prompt: # returns recorded IC50 (system: UniProtKB P0DTD1) for C[C@@H](NC(=O)c1ccccc1CCC(=O)NNC(=O)CCl)c1cccc2ccccc12
Completion: 20.2

* * *

# Tested on: SARS-CoV-2 isolate USA-WA1/2020
# condition-notes: read-out: cytopathic effect, % cell viability; [inhibitor] 10.00 uM; duplicate wells; 10 µM
attribute-measured: inhibition
Reply with the number and its unit after it.

Prompt: Requested field: inhibition. Item: CCC(CC)COC(=O)[C@H](C)N[P@](=O)(OC[C@H]1O[C@@](C#N)(c2ccc3c(N)ncnn23)[C@H](O)[C@@H]1O)Oc1ccccc1 [remdesivir, reference compound]
Completion: 97.1%

* * *

# System: SARS-CoV-2 isolate USA-WA1/2020
# condition-notes: African green monkey, 2.08 µM
attribute-measured: inhibition (%)
A number alone suffices; assume %.

Prompt: Requested field: inhibition. Item: Cc1ccc(N)cc1C(=O)N[C@H](C)c1cccc2ccccc12 [GRL0617, reference compound]
Completion: 8.22

* * *

# test-description: in vitro
# condition-notes: human, Percent Cytotoxicity (Neutral Red), Caco-2; SARS2-740 (Delta set); 10 µM
attribute-measured: cytotoxicity at 10 µM (%)
A number alone suffices; assume %.

Prompt: Requested field: cytotoxicity at 10 µM. Item: COC(=O)/C=C/C(=O)NNC(=O)CCc1ccccc1C(=O)N[C@H](C)c1cccc2ccccc12 [Compound 7]
Completion: 4.4
